- ASSAY_EXPLANATION: Further sandalwood analogues: volatile fatty acid and methane production (Example 7, Table 14)
- Assay type: cell-based
- EXPERIMENTAL_CONDITIONS: 50 μg/ml
Listing of recorded TVFA by entry.

COMPOUND	TVFA
CC1(CO)CC1CC1CC2CC2(C)C1(C)C (stereo not shown)	3739 μmol/g of feed added
CCC(=CCC1CC=C(C)C1(C)C)CO (stereo not shown) [Sanjinol]	3237 μmol/g of feed added
CC(=CCC1CC=C(C)C1(C)C)CO (stereo not shown)	3074 μmol/g of feed added
CC1=CCC(CCC(C)C(C)O)C1(C)C (stereo not shown)	2834 μmol/g of feed added
CCC(=CCC1CC=C(C)C1(C)C)CO (stereo not shown) [Bacdanol]	2942 μmol/g of feed added
CC1C2CC(CC2C2CCC(O)CC2)C1(C)C (stereo not shown)	3198 μmol/g of feed added
CC1=CCC(C=CC(C)C(C)O)C1(C)C (stereo not shown)	3039 μmol/g of feed added
